Assay: in vivo
Settings: rat, po, 5 mg/kg
measurement_name: Cmax (ng/mL)
Numbers only, in ng/mL.

Query: If you can, please state the reported Cmax value of COc1ccc(-c2nc3c4ccccc4ccc3n2C(C)C)cc1 .
Reply: 220

---

Test: in vivo
Settings: rat, po, 5 mg/kg
measurement_name: Tmax (h)
Give bare numbers, in h.

Query: What value of Tmax has been recorded for this entry: COc1ccc(-c2nc3c4ccccc4ccc3n2C(C)C)cc1
Reply: 1.5

---

Experiment: in vivo
Conditions: rat, po, 5 mg/kg
measurement_name: AUC(0-t)
Respond with a number, then the unit of measure.

Query: Given COc1ccc(-c2nc3c4ccccc4ccc3n2C(C)C)cc1 , state its recorded AUC(0-t).
Reply: 1170 ng·h/mL
